B1: DnaJ homolog subfamily C member 5, residues 16 to 77; numbered along this chain, Q9H3Z4 (parent)
chain: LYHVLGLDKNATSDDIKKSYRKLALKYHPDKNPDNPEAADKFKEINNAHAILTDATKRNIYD

- Variants of: B1
- Procedure Text: abundance fitness (aPCA) (normalised: wild type 0, dead -1); higher = more abundant; growth selection in yeast, the domain comes from the species named
- Measurement Setup: Homo sapiens
True means recorded abundance fitness is -0.3 or above; False means it is below -0.3.

[Q] Hi team, for "D15T" , is the recorded abundance fitness at or above -0.3?
[A] False

[Q] Moving on to "K31E"
[A] True

[Q] Same question for "K22H" please.
[A] True

[Q] Also need "H28W" , thanks.
[A] False

[Q] Same thing, different variant: "N35A"
[A] True

[Q] Same thing, different variant: "N10H"
[A] False

[Q] And the next one, "K57T" ?
[A] False

[Q] Please answer likewise for "A50E"
[A] False

[Q] Lookup "F42S"
[A] True

[Q] What about this variant? "D40Q"
[A] True

[Q] Repeat with "T12F"
[A] False

[Q] Please do the same for "Y20D" as well.
[A] True

[Q] Input "D34I"
[A] False

[Q] Now the variant "K9C"
[A] True

[Q] Field entry: "D54C"
[A] False

[Q] # iterate: "Y27P"
[A] False

[Q] Entry to check: "D54W"
[A] False

[Q] Check "T12P" too.
[A] False

[Q] Entry "L23K" please
[A] True

[Q] Likewise for "T12A" ?
[A] False

[Q] Also "Y27A" ?
[A] False

[Q] Input "V4G"
[A] False

[Q] And the next one, "S13D" ?
[A] True

[Q] Follow-up entry: "D14A"
[A] True

[Q] Item: "A38E"
[A] True

[Q] Would you kindly repeat that for "K57A" ?
[A] True

[Q] Input "D30P"
[A] False

[Q] Okay, and "G6S" ?
[A] False

[Q] Now this one: "K22C"
[A] True

[Q] Next up: "L7N"
[A] False

[Q] Next entry: "L25A"
[A] True

[Q] Next record, please: "L1W"
[A] False

[Q] Would you mind doing "N47S" as well?
[A] True

[Q] # iterate: "A11I"
[A] False

[Q] Then this variant: "L5Y"
[A] False

[Q] Similarly, "K31L" ?
[A] False

[Q] Check "K26H" too.
[A] True

[Q] Also check "K9N"
[A] False

[Q] How about "P33G" ?
[A] True

[Q] Follow-up entry: "Y61W"
[A] False

[Q] Input "P29F"
[A] False

[Q] Queued: "N59L"
[A] True

[Q] Follow-up item: "N10W"
[A] False

[Q] Also need "K31I" , thanks.
[A] True

[Q] Try "L7Q" next.
[A] False
